Tested on: Staphylococcus aureus
Assay: Antibacterial activity against methicillin-resistant Staphylococcus aureus ATCC 43300 after 24 hrs by broth microdilution method
Format: functional
Conditions: ATCC 43300, 24 h
# key: entry, value: MIC
property.name: MIC

{"columns": ["compound", "study.target", "result"],
 "data": [
  ["Clc1cccc(COc2cccc(Cn3cnnn3)c2)c1", "Staphylococcus aureus", "> 64 µg/mL"],
  ["Cc1cccc(COc2cccc(-c3c[nH]nn3)c2)c1", "Staphylococcus aureus", "16 µg/mL"],
  ["O=[N+]([O-])c1ccc(COc2cccc(Cn3cncn3)c2)cc1", "Staphylococcus aureus", "> 64 µg/mL"],
  ["CCCCC(CC)COc1ccc(F)c(-c2c[nH]nn2)c1F (racemic)", "Staphylococcus aureus", "4 µg/mL"],
  ["CCCCC(CC)COc1ccccc1-c1c[nH]nn1 (centres undefined)", "Staphylococcus aureus", "8 µg/mL"],
  ["CCCCC(CC)COc1cccc(C(N)=O)c1 (racemic)", "Staphylococcus aureus", "16 µg/mL"],
  ["Fc1ccc(OCc2cccc(Cl)c2)c(F)c1-c1c[nH]nn1", "Staphylococcus aureus", "8 µg/mL"],
  ["Cc1ccc(COc2cccc(-c3c[nH]nn3)c2)cc1", "Staphylococcus aureus", "> 64 µg/mL"],
  ["c1ccc(COc2cccc(-c3c[nH]nn3)c2)cc1", "Staphylococcus aureus", "> 64 µg/mL"],
  ["Fc1ccc(OCCCCOc2ccc(Cl)cc2)c(F)c1-c1c[nH]nn1", "Staphylococcus aureus", "> 64 µg/mL"],
  ["CCCCC(CC)COc1cccc(-c2cnn(C)n2)c1 (centres undefined)", "Staphylococcus aureus", "> 64 µg/mL"],
  ["NC(=O)c1c(F)ccc(OCc2nc(-c3ccc(Cl)cc3)c(Br)o2)c1F", "Staphylococcus aureus", "0.06 µg/mL"],
  ["Clc1cccc(COc2cccc(-c3c[nH]nn3)c2)c1", "Staphylococcus aureus", "16 µg/mL"],
  ["CCCCC(CC)COc1cccc(-c2cn(C)nn2)c1 (centres undefined)", "Staphylococcus aureus", "32 µg/mL"]
]}

Each recorded value in this set is attributed to ChEMBL document CHEMBL4184277.
